Listed here: items and their measured interaction data at Target Concentration 1000.
assayed.target: WWP2^HECT (Homo sapiens, UniProt O00308)
Construct: GST-TEV (N, cleaved yes); made in house; host or cells: Escherichia coli BL21 (DE3)
Sequence (O00308 492-865): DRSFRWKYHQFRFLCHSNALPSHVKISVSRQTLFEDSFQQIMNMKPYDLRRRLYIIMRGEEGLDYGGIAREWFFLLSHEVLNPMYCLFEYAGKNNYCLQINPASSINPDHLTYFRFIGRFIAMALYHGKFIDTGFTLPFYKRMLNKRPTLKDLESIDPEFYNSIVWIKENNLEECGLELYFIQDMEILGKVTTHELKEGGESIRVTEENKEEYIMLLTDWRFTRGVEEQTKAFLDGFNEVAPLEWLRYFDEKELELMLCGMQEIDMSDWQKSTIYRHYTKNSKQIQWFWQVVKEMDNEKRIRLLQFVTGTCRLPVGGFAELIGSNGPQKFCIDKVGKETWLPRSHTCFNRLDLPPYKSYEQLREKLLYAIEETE
assay.notes: Naive Library Presenter Screening (phage, NGS), WWP2^HECT
Format: binding
condition.parameters: WWP2 target concentration 1000 nM, second column
Numbered stars: 1 amine (or outer) side, 2 acyl side, 3 side chain; on linkers, the order of the positions; unused ones are H or OH. Bridge positions count the residues as written; N and C are the ends. Ends that are not written are not given here. Phenylene(1,4-NHCOCH2)2 = O=C(C[*:1])Nc1ccc(NC(=O)C[*:2])cc1
property.label: interaction data at Target Concentration 1000

>>> recorded_measurement("DPATWDCIWAAERCWRY (linker 7-14 via Phenylene(1,4-NHCOCH2)2 (inferred); not fully specified (C-terminus))")
13
>>> recorded_measurement("DPATWDCQQAAHHCWVL (linker 7-14 via Phenylene(1,4-NHCOCH2)2 (inferred); not fully specified (C-terminus))")
66
>>> recorded_measurement("DPAIQNCRSAADVCMFF (linker 7-14 via Phenylene(1,4-NHCOCH2)2; not fully specified (C-terminus))")
127
>>> recorded_measurement("DPATWDCRNAAWLCLLN (linker 7-14 via Phenylene(1,4-NHCOCH2)2 (inferred); not fully specified (C-terminus))")
12
>>> recorded_measurement("DPATYYCEAAAETCRFF (linker 7-14 via Phenylene(1,4-NHCOCH2)2 (inferred); not fully specified (C-terminus))")
123
>>> recorded_measurement("DPAAWDCRYAALACYIH (linker 7-14 via Phenylene(1,4-NHCOCH2)2 (inferred))")
34

---

assayed.target: RNF31 UBA domain (Homo sapiens, UniProt Q96EP0)
Construct: RNF31 UBA domain protein (residues 480-639) with N-terminal Thioredoxin-TEV-6×his-yBBr-3C tags; Thioredoxin (N, cleaved yes); made in house; host or cells: E. coli BL21 (DE3) pLysS
Sequence (Q96EP0 480-639): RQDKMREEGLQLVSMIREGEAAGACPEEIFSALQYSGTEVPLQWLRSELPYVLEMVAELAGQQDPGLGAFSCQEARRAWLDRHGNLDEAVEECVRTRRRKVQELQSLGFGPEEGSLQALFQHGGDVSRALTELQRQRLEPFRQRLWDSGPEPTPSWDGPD
assay.notes: Phage Library Screening with NGS, RNF31 UBA domain
Format: binding
condition.parameters: RNF31 UBA domain cluster C46; target concentration 10
property.label: Phage library screen NGS readout, Target Concentration 10

>>> recorded_measurement("DPAQRQCLSAAVFCATL")
3
>>> recorded_measurement("DPAASQCFSAAVYCAWI")
0
>>> recorded_measurement("DPAEQRCLSAAVYCAWH")
1
>>> recorded_measurement("DPAHVRCTSAALWCNIF")
0
>>> recorded_measurement("DPAQMFCYSAAVYCAAF")
0
>>> recorded_measurement("DPAALACLSAAVYCEMY")
6
>>> recorded_measurement("DPALQSCLSAAVYCTVS")
0
>>> recorded_measurement("DPAVQSCLSAAVYCAFR")
2
>>> recorded_measurement("DPALTNCFSAAVYCAMF")
8
>>> recorded_measurement("DPAAQACLSAAVFCAWY")
5
>>> recorded_measurement("DPALRTCLSAAVFCAVA")
0
>>> recorded_measurement("DPAQLNCLSAAMYCALY")
2
>>> recorded_measurement("DPAQMSCFSAAVYCRLF")
0
>>> recorded_measurement("DPAQRQCLSAAVWCATF")
10
>>> recorded_measurement("DPASASCLSAAIYCSMF")
5

---

assayed.target: MDM2 (Homo sapiens, UniProt Q00987)
Construct: made in house
Sequence (Q00987 25-109): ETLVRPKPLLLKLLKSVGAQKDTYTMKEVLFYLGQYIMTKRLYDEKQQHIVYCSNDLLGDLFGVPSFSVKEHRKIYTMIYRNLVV
assay.notes: Naive Library Presenter Screening (phage, NGS), MDM2
Assay type: binding
condition.parameters: MDM2 target concentration 300 nM
Numbered stars: 1 amine (or outer) side, 2 acyl side, 3 side chain; on linkers, the order of the positions; unused ones are H or OH. Bridge positions count the residues as written; N and C are the ends. Ends that are not written are not given here. Phenylene(1,4-NHCOCH2)2 = O=C(C[*:1])Nc1ccc(NC(=O)C[*:2])cc1
Reported interaction data at Target Concentration 300 values for a set of sequences
property.label: interaction data at Target Concentration 300

>>> recorded_measurement("DPANHACFQAAWDCQFF (linker 7-14 via Phenylene(1,4-NHCOCH2)2 (inferred))")
1045
>>> recorded_measurement("DPAYASCFSAAWDCQFW (linker 7-14 via Phenylene(1,4-NHCOCH2)2 (inferred))")
21
>>> recorded_measurement("DPATQQCFQAAWDCQFM (linker 7-14 via Phenylene(1,4-NHCOCH2)2 (inferred))")
683
>>> recorded_measurement("DPADNRCFQAAWDCAFW (linker 7-14 via Phenylene(1,4-NHCOCH2)2 (inferred))")
22
>>> recorded_measurement("DPAFDSCFSAAWDCMYW (linker 7-14 via Phenylene(1,4-NHCOCH2)2 (inferred))")
92
>>> recorded_measurement("DPAENECFTAAWDCMFF (linker 7-14 via Phenylene(1,4-NHCOCH2)2 (inferred))")
51
>>> recorded_measurement("DPASEACFQAAWDCVSW (DPASEACFQAAWDCVSW-NH2; linker 7-14 via Phenylene(1,4-NHCOCH2)2 (inferred))")
559
>>> recorded_measurement("DPADSECFQAASDCQYW (linker 7-14 via Phenylene(1,4-NHCOCH2)2 (inferred))")
0

---

assayed.target: FBXW7-SKP1 (Homo sapiens)
Construct: FBXW7 (Uniprot ID: Q969H0, residues 263-706) with an N-terminal GST-TEV tag and C-terminal AVI tag; GST-TEV (N); made in house; host or cells: E. coli BL21 (DE3)
Sequence (Q969H0 263-706): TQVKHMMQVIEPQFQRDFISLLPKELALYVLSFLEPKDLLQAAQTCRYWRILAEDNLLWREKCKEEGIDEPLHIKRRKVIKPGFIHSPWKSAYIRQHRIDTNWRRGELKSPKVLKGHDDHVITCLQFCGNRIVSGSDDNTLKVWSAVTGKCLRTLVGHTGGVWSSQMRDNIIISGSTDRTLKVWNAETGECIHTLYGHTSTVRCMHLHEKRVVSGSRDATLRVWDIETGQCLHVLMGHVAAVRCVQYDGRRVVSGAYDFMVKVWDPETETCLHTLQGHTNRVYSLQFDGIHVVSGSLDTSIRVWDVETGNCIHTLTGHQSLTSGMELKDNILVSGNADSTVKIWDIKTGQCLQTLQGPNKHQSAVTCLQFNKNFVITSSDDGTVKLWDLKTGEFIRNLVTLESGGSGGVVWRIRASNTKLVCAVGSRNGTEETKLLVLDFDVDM
Sequence (P63208 whole entry partner, the tested form may be a part): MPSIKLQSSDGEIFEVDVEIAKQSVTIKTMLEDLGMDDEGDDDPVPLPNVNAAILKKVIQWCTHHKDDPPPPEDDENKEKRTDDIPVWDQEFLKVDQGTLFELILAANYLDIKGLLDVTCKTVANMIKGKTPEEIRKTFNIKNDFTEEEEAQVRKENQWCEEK
assay.notes: Naive Library Presenter Screening (phage, NGS), FBXW7-SKP1
Assay type: binding
condition.parameters: FBXW7 target concentration 1000 nM, first column
Note to self: interaction data at Target Concentration 1000 under 90 means condition met, ties and anything higher get condition not met.

>>> category_label("DPAITTCLDAAELCDFW")
"condition not met"
>>> category_label("DPANIACDDAALLCAFW")
"condition met"
>>> category_label("DPAAFFCDDAAERCEFW")
"condition not met"
>>> category_label("DPADMYCRDAAELCEFW")
"condition not met"
>>> category_label("DPADLTCEDAAELCEFW")
"condition not met"
>>> category_label("DPAAWICEEAAEICEFW")
"condition met"
>>> category_label("DPANIACDDAALLCEFW")
"condition not met"
>>> category_label("DPATYFCYDAAELCDWW")
"condition met"

---

assayed.target: beta-catenin (Homo sapiens)
Construct: made in house; host or cells: E. coli BL21 (DE3) pLysS
Sequence (P35222 134-665): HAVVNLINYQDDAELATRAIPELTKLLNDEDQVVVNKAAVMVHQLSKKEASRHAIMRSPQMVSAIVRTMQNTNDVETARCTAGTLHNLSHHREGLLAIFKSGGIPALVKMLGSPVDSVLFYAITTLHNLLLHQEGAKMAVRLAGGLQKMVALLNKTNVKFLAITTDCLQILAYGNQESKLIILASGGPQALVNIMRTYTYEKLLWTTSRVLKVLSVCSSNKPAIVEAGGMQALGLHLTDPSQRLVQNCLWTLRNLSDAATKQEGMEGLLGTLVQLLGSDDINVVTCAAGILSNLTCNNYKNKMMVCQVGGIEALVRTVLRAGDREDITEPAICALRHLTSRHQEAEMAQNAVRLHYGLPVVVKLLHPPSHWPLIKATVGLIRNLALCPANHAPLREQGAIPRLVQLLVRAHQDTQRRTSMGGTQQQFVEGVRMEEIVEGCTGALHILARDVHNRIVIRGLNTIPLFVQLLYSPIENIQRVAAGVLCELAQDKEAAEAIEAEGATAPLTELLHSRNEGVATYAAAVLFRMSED
assay.notes: Phage Library Screening with NGS, beta-catenin
Format: binding
condition.parameters: BLANK, second column
property.label: Target Concentration BLANK (phage screen NGS readout)

>>> recorded_measurement("DPAFLDCHIAAWTCNEF")
0
>>> recorded_measurement("DPADNECILAAHICTLA")
0
>>> recorded_measurement("DPARHECILAAHICEWE")
2
>>> recorded_measurement("DPAVFMCYEAAFECQYF")
2
>>> recorded_measurement("DPANVECEWAAIHCSLV")
0
>>> recorded_measurement("DPAILNCHMAAWDCNFY")
0
>>> recorded_measurement("DPAEVECMLAAHVCRAF")
0
>>> recorded_measurement("DPATWHCDWAAEHCELL")
0
>>> recorded_measurement("DPAFLTCHIAAWACSEQ")
2
>>> recorded_measurement("DPAVIACYDAAFVCEYF")
1
>>> recorded_measurement("DPADYDCILAAHICTNI")
0
>>> recorded_measurement("DPASWDCDHAALLCTLD")
0
>>> recorded_measurement("DPAADDCVLAAHVCAYF")
1
>>> recorded_measurement("DPAVLECHIAAWECNHT")
0
>>> recorded_measurement("DPAEWYCEHAALVCTNH")
0
>>> recorded_measurement("DPAALSCYQAAFHCQYY")
0
>>> recorded_measurement("DPAELACEWAAIHCELV")
0
